Target: small-conductance Ca2+-activated K+ channels (SK channels, subtype 2) (Homo sapiens)
Construct: expressed in transfected cells; host or cells: HEK293
Assay: whole-cell patch-clamp of ionic current through SK2 channels in HEK293 cells (SC100)
Format: cell-based
Conditions: concentration that increases the basal current by 100%; HEK293 cells expressing SK2 channels
observedProperty: SC100

1. Cc1cc(NC2CCC(F)(F)CC2)nc(-c2nc(C(F)(F)F)cs2)n1: + (+ means >1 uM)
2. Cc1cc(C)n(-c2cc(NCC(C)(C)C)cc(NC3CCC(F)(F)CC3)n2)n1: + (+ means >1 uM)
3. Cc1cc(C)n(-c2nc3c(c(NC4CCC(F)(F)CC4)n2)CCN(CC(N)=O)C3)n1: + (+ means >1 uM)
4. Cc1cc(C)n(-c2cc(N[C@@H]3CCN(C)C3=O)cc(NC3CCC(F)(F)CC3)n2)n1 (single isomer, unassigned): + (+ means >1 uM)
5. Cc1cc(NC2CCC(F)(F)CC2)nc(-n2ccc(C(C)(C)O)n2)n1: + (+ means >1 uM)

Please look at the following molecule next.
// query SC100 value for entry Cc1cc(C)n(-c2nc(NC3CCC(F)(F)CC3)cc(NC(C)c3nccs3)n2)n1 (stereo not shown) + (+ means >1 uM)

---

Molecular target: small-conductance Ca2+-activated K+ channels (SK channels, subtype 2) (Homo sapiens, UniProt Q9H2S1)
Construct: expressed in transfected cells; host or cells: HEK293
Assay: whole-cell patch-clamp of ionic current through SK2 channels in HEK293 cells (SC100)
Type: cell-based
Conditions: concentration that increases the basal current by 100%; HEK293 cells expressing SK2 channels
observedProperty: SC100

1) Cc1ccn(-c2nc(NC3CCC(F)(F)CC3)cc(N3CC(C)(O)C3)n2)n1: + (+ means >1 uM)
2) FCc1ccn(-c2nc(NC3CCC(F)(F)CC3)cc(N3CCOCC3)n2)n1: + (+ means >1 uM)

---

Biological target: small-conductance Ca2+-activated K+ channels (SK channels, subtype 2) (Homo sapiens, UniProt Q9H2S1)
Construct: expressed in transfected cells; host or cells: HEK293
Assay: whole-cell patch-clamp of ionic current through SK2 channels in HEK293 cells (SC100)
Assay type: cell-based
Conditions: whole-cell patch-clamp, HEK293 cells expressing SK2 channels; concentration that increases the basal current by 100%
observedProperty: SC100 (μM)

Reference set (5 entries):
1) FCc1ccn(-c2nc(NC3CCC(F)CC3)cc(N3CCOCC3)n2)n1 (stereo not drawn): + (+ means >1 uM)
2) CC(=O)c1cc(NC2CCCCC2(F)F)nc(-c2nc(C)cs2)n1 (stereo not drawn) [IN11140-081-P1]: + (+ means >1 uM)
3) Cc1cc(NC2CCC(F)(F)CC2)nc(-n2ccc(C3CCCC3)n2)n1 [IN11250-017-P1]: + (+ means >1 uM)
4) COC(=O)NCc1cc(NC2CCC(F)(F)CC2)nc(-c2nc(C)cs2)c1 [IN11130-047-P1]: +++ (+++ means <200 nM)
5) COc1cc(NC2CCCCC2)nc(-n2nc(C)cc2C)n1 [IN11055-044-P1]: + (+ means >1 uM)

Please look up its SC100 (μM): Cc1ccn(-c2nc(COc3ccc(C(N)=O)nn3)cc(NC3CCC(F)(F)CC3)n2)n1 [IN11053-046-P1] +++ (+++ means <200 nM)

---

Target: small-conductance Ca2+-activated K+ channels (SK channels, subtype 2) (Homo sapiens)
Construct: expressed in transfected cells; host or cells: HEK293
Assay: whole-cell patch-clamp of ionic current through SK2 channels in HEK293 cells (SC100)
Assay type: cell-based
Conditions: whole-cell patch-clamp, HEK293 cells expressing SK2 channels; concentration that increases the basal current by 100%
observedProperty: SC100 (μM)

# annotated cases, reported SC100 (μM) shown
1. Cc1ccn(-c2nc(NC3CCC(F)(F)CC3)cc(OCCN(C)C)n2)n1 [IN10966-095-P1]: + (+ means >1 uM)
2. COc1cnc(-n2nc(C)cc2C)nc1NC1CCC(F)(F)CC1: + (+ means >1 uM)
3. FC1(F)CCC(Nc2cc(N3CCOCC3)nc(-c3ccc[nH]3)n2)CC1 [IN11030-023-P1]: + (+ means >1 uM)
4. Cc1ccn(-c2nc(NC3CCC(N(C)C)CC3)cc(N3CCOCC3)n2)n1 (stereo not drawn): + (+ means >1 uM)
5. CC(O)c1cc(NC2CCC(F)(F)CC2)nc(-n2ccc(C3CC3)n2)n1 (stereo not drawn): + (+ means >1 uM)
6. Cc1ccn(-c2nc(NC3CCC(F)(F)CC3)cc(C(C)F)n2)n1 (stereo not drawn) [IN10876-080-P1]: + (+ means >1 uM)

Find the recorded SC100 (μM) belonging to Cc1ccn(-c2nc(NC3CCC(C#N)CC3)cc(N3CCOCC3)n2)n1 (stereo not drawn) and report it. + (+ means >1 uM)

---

Biological target: small-conductance Ca2+-activated K+ channels (SK channels, subtype 2) (Homo sapiens, UniProt Q9H2S1)
Construct: expressed in transfected cells; host or cells: HEK293
Test: whole-cell patch-clamp of ionic current through SK2 channels in HEK293 cells (SC100)
Format: cell-based
Details: whole-cell patch-clamp, HEK293 cells expressing SK2 channels; concentration that increases the basal current by 100%
observedProperty: SC100 (μM)

1. CC(=O)N1CCC(Oc2cc(-n3ccc(C)n3)nc(NC3CCC(F)(F)CC3)n2)CC1 [NSSy6914]: +++ (+++ means <200 nM)
2. Fc1ccn(-c2cc(N3CCOCC3)nc(NC3CCC(F)(F)CC3)n2)n1 [NSSy6468]: + (+ means >1 uM)
3. Cc1ccn(-c2nc(N3CCCCC3)cc(N3CCOC(CO)C3)n2)n1 (stereo not drawn) [IN10882-072-P1]: + (+ means >1 uM)
4. Cc1csc(-c2nc(C(C)O)cc(N(C)C3CCCCC3)n2)n1 (stereo not drawn) [IN10880-084-P1]: + (+ means >1 uM)
5. COC(=O)N1CC(Oc2cc(NC3CCCCC3)nc(-c3nc(C)cs3)n2)C1 [NSSy6099]: +++ (+++ means <200 nM)
6. Cc1csc(-c2nc(NC3CCC(F)(F)CC3)cc(-c3ccccn3)n2)n1 [IN11196-080-P1]: + (+ means >1 uM)
7. OCCN(CCO)c1cc(NC2CCC(F)(F)CC2)nc(-n2ccc(CO)n2)n1 [IN11337-019-P1]: + (+ means >1 uM)
8. Cc1cc(C)n(-c2nc(NC3CCC(F)(F)CC3)cc(C(O)c3ccccc3)n2)n1 (stereo not drawn) [IN10987-030-P1]: + (+ means >1 uM)

Let us examine a further case.
Can you look up the measured SC100 (μM) of Cc1ccn(-c2nc(C(C)O)cc(N3CCCCC3)n2)n1 (stereo not drawn) [IN10882-055-P1] for me? + (+ means >1 uM)

---

Target: small-conductance Ca2+-activated K+ channels (SK channels, subtype 2) (Homo sapiens)
Construct: expressed in transfected cells; host or cells: HEK293
Assay: whole-cell patch-clamp of ionic current through SK2 channels in HEK293 cells (SC100)
Format: cell-based
Conditions: concentration that increases the basal current by 100%; HEK293 cells expressing SK2 channels
observedProperty: SC100

1. Cc1cc(NC2C[C@@H]3[C@H](C2)C3(F)F)nc(-n2ccc(C)n2)n1 (stereo partly shown): + (+ means >1 uM)
2. Cc1cc(C)n(-c2nc(CO)cc(NC3CCCC(F)(F)C3)n2)n1 (stereo not shown): + (+ means >1 uM)
3. Cc1cc(NC2CCC(F)(F)CC2)nc(-c2nc(CO)cs2)n1: + (+ means >1 uM)

---

Molecular target: small-conductance Ca2+-activated K+ channels (SK channels, subtype 2) (Homo sapiens)
Construct: expressed in transfected cells; host or cells: HEK293
Assay: whole-cell patch-clamp of ionic current through SK2 channels in HEK293 cells (SC100)
Assay type: cell-based
Conditions: whole-cell patch-clamp, HEK293 cells expressing SK2 channels; concentration that increases the basal current by 100%
observedProperty: SC100 (μM)

Solved entries:
1) Cc1csc(-c2nc(NC3CCC(F)(F)CC3)cc(NC3COC3)n2)n1 [IN10882-040-P1]: + (+ means >1 uM)
2) COc1cc(NCCC(C)(F)F)nc(-c2nc(C)cs2)n1 [IN11107-021-P1]: + (+ means >1 uM)
3) COc1ccn(-c2cc(N3CCN(C(C)=O)CC3)nc(NC3CCC(F)(F)CC3)n2)n1: + (+ means >1 uM)
4) Cc1cc(NC2CCC(F)(F)CC2)nc(-n2ccc(C3CC3)n2)c1 [IN11106-062-P1]: +++ (+++ means <200 nM)
5) Cc1ccn(-c2cc(NC3CCC(F)(F)CC3)nc(-n3ccc(C)n3)c2)n1 [IN11054-030-P1]: + (+ means >1 uM)
6) CC(=O)N1CCN(c2cc(-n3ccc(F)n3)nc(NC3CCC(F)(F)CC3)n2)CC1: + (+ means >1 uM)
7) COC(=O)N1CC(Oc2cc(NC3CCC(F)(F)CC3)nc(-c3nc(C)no3)c2)C1: + (+ means >1 uM)
8) CNCc1cc(NC2CCC(F)(F)CC2)nc(-c2nc(C)cs2)n1 [IN11059-096-P1]: + (+ means >1 uM)
9) Cc1csc(-c2nc(NC3CCC(F)(F)CC3)cc(C(C)S(C)(=O)=O)n2)n1 (stereo not drawn) [IN10973-053-P1]: + (+ means >1 uM)
10) COC(=O)N1CC(Oc2cc(NC34CC5CC(CC(C5)C3)C4)nc(-n3ccc(C)n3)n2)C1: +++ (+++ means <200 nM)

Items follow; give SC100 (μM) for each.
1. Fc1ccn(-c2nc(NC3CCC(F)(F)CC3)cc(N3CCOCC3)n2)n1
2. Cc1cc(C)n(-c2nc(CCO)cc(NC3CCC(F)(F)CC3)n2)n1 [IN10963-077-P1]

["+ (+ means >1 uM)", "+ (+ means >1 uM)"]

Data provenance is patent US10774064B2.
